- studyTarget: UniProt Q06124
- Sequence (Q06124 1-593): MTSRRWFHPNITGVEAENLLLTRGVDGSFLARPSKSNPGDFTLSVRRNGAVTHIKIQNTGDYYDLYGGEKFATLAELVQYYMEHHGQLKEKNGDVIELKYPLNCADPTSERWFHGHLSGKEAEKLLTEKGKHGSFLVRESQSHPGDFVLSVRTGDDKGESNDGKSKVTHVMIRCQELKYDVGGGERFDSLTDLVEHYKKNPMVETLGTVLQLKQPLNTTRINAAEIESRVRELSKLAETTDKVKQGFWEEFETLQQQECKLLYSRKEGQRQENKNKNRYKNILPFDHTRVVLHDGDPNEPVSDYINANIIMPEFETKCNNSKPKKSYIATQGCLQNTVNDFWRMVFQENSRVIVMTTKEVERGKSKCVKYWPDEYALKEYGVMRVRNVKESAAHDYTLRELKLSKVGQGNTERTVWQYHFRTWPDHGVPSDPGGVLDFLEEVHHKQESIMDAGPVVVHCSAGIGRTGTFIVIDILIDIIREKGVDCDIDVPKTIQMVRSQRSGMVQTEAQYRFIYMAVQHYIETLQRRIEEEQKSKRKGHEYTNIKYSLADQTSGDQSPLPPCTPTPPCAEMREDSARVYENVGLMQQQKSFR
- protocolText: SHP2 allosteric inhibitor enzyme activity assay (DiFMUP fluorescence)
- Type: biochemical
- testParameters: class symbols
pIC50: −log10 of the molar value.
Consider the following compounds and their measured pIC50 readings.

Example results:
N[C@@H]1c2ccccc2CC12CCN(c1nc3[nH]nc(C4(c5cccc(CO)c5)CC4)c3c(=O)[nH]1)CC2    ≥ 7.70
Cn1ncc2c1CC(C)(C)C=C2c1n[nH]c2nc(N3CCC4(CC3)Cc3ccccc3[C@H]4N)[nH]c(=O)c12    ≥ 7.70

Recall and state the measured pIC50 for "C[C@@H]1OCC2(CCN(c3nc4[nH]nc(C5(c6ccc(OC(F)(F)F)cc6)CC5)c4c(=O)[nH]3)CC2)[C@@H]1N" . 7.22 to 7.70

Recall and state the measured pIC50 for "Cc1cccc(C2(c3n[nH]c4nc(N5CCC6(CC5)Cc5ccccc5[C@H]6N)[nH]c(=O)c34)CC2)n1" . ≥ 7.70

Recall and state the measured pIC50 for "N[C@@H]1c2ccccc2CC12CCN(c1nc3[nH]nc(C4(c5nc6ccccc6o5)CC4)c3c(=O)[nH]1)CC2" . ≥ 7.70

Recall and state the measured pIC50 for "N[C@@H]1c2ccccc2CC12CCN(c1nc3[nH]nc(C4(c5ccco5)CC4)c3c(=O)[nH]1)CC2" . ≥ 7.70

Recall and state the measured pIC50 for "Cn1cc2c(n1)CCC=C2c1n[nH]c2nc(N3CCC4(CC3)Cc3ccccc3[C@H]4N)[nH]c(=O)c12" . ≥ 7.70

Recall and state the measured pIC50 for "N[C@@H]1c2ccccc2CC12CCN(c1nc3[nH]nc(C4(c5cccc(Cl)c5)CC4)c3c(=O)[nH]1)CC2" . ≥ 7.70

Recall and state the measured pIC50 for "N[C@@H]1c2ccccc2CC12CCN(c1nc3[nH]nc(C4(c5ccc(F)c(F)c5)CC4)c3c(=O)[nH]1)CC2" . ≥ 7.70

Recall and state the measured pIC50 for "N[C@@H]1c2ccccc2CC12CCN(c1nc3[nH]nc(C4(c5cccc6occc56)CC4)c3c(=O)[nH]1)CC2" . ≥ 7.70
